The values you see were collected from PubChem BioAssay AID1014.

# assay_info: blockers of bacterial quorum-sensing reporter fluorescence – flow cytometry, SAR analogs, SAR follow-up (AID 1014);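 also: Staphylococcus aureus RN6390 with RNAIII-GFP reporter stimulated by AIP; bacteria incubated with compound for 3 hours at 37 °C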
# measurement_setup: at 20 µM, active compounds read high
Active and inactive are the calls of the source. Rule as the data show it: active = inhibition of mean fluorescence above about 33%; inactive = the rest.

compound	inhibition of mean fluorescence
COc1ccc(C(=O)c2coc3ccc(O)cc23)cc1	5% (inactive)
CC1CC(C)CN(C(C(=O)Nc2ccc(C(C)C)cc2)c2cc3c(cc2[N+](=O)[O-])OCO3)C1 (configuration not stated)	-12.5% (inactive)
O=C(NCC(c1cccnc1)N1CCN(c2ccccc2)CC1)c1ccccc1F (configuration not stated)	-31.8% (inactive)
O=C(NCC(c1cccnc1)N1CCN(c2ccccc2F)CC1)c1cccc(Cl)c1 (configuration not stated)	67.2% (active)
CC(C)c1ccc(NC(=O)C(c2ccc3c(c2)OCO3)N2CCc3ccccc32)cc1 (configuration not stated)	26.3% (inactive)
CCc1ccc(Nc2nc3c(S(=O)(=O)c4ccc(C(C)C)cc4)nnn3c3ccccc23)cc1	6.9% (inactive)
CCOc1ccc(Nc2nc3c(S(=O)(=O)c4ccccc4)nnn3c3ccccc23)cc1	-16.3% (inactive)
Cc1ccccc1C(=O)N1CCC(C(=O)Nc2ccc3c(c2)OCO3)CC1	-8.8% (inactive)
CC(C)c1ccc(NC(=O)C(c2ccc3c(c2)OCO3)N2CCC3(CC2)OCCO3)cc1 (configuration not stated)	15.2% (inactive)
CCOC(=O)c1c(COc2ccccc2)oc2ccc(O)cc12	-1.1% (inactive)
COc1ccc(Nc2nc3c(S(=O)(=O)c4ccc(C)cc4)nnn3c3ccccc23)cc1	4.9% (inactive)
CCOC(=O)c1oc2cccc(O)c2c1C	0.4% (inactive)
O=C(NCC(c1cccnc1)N1CCN(c2ccccc2)CC1)c1cccs1 (configuration not stated)	47.7% (active)
N#Cc1c(NC(=O)COC(=O)c2c3c(nc4ccccc24)CCCC3)sc2c1CCCC2	-13.5% (inactive)
O=C(Nc1ccc2c(c1)OCCO2)C(c1ccccc1)N1CCOCC1 (configuration not stated)	9.5% (inactive)
CC(C)c1ccc(S(=O)(=O)c2nnn3c2nc(N)c2ccccc23)cc1	11.1% (inactive)
CCOC(=O)c1c(-c2cc(Cl)c(OC)c(Cl)c2)oc2ccc(O)cc12	-4.9% (inactive)
O=C(NCC(c1cccnc1)N1CCN(c2ccc(F)cc2)CC1)c1cccc(Cl)c1 (configuration not stated)	-11.7% (inactive)
Cc1cc(Nc2ccccc2C(=O)O)n2ncnc2n1	-29.1% (inactive)
COc1ccc(N2CCN(C(CNC(=O)c3ccccc3F)c3cccnc3)CC2)cc1 (configuration not stated)	-65.6% (inactive)
CC1CN(CCC(=O)Nc2ccc3c(c2)OCO3)CC(C)O1 (configuration not stated)	14% (inactive)
COc1c(F)c(F)c(C(=O)O)c(Nc2ccc(C)cc2)c1F	9.1% (inactive)
CCc1c(C(=O)c2ccc(C)cc2)oc2ccc3c(C)cc(=O)oc3c12	10.8% (inactive)
CC(=O)c1cc2cc(O)ccc2o1	-1% (inactive)
COc1ccc(S(=O)(=O)c2n[nH]n3c2nc(=O)c2ccccc23)cc1	34.1% (active)
CC(=O)c1cc2c(cc1NC(=O)CN1CCN(C(=O)c3ccco3)CC1)OCO2	-5.2% (inactive)
Cc1ccc(Nc2nc3c(S(=O)(=O)c4ccc(C(C)(C)C)cc4)nnn3c3ccccc23)cc1	-38.2% (inactive)
CCCCc1oc2ccccc2c1C(=O)c1ccc(O)cc1	84.9% (active)
Cc1ccc(Nc2c(F)c(F)c(F)c(F)c2C(=O)O)c(C)c1	4.2% (inactive)
CC1CCN(C(=O)c2oc3ccccc3c2NC(=O)c2ccc3c(c2)OCO3)CC1	25.2% (inactive)
COc1ccc(C(=O)NCC(c2cccnc2)N2CCN(c3ccccc3F)CC2)cc1 (configuration not stated)	-7.6% (inactive)
COc1ccc(NC(=O)C(c2cc3c(cc2[N+](=O)[O-])OCO3)N2CCN(C=O)CC2)cc1 (configuration not stated)	-23.1% (inactive)
CSCCC(NC(=O)c1ccccc1)C(=O)OCC(=O)Nc1sc2c(c1C#N)CCCC2 (configuration not stated)	40.6% (active)
O=C(NC1CCCC1)C(c1cc2c(cc1[N+](=O)[O-])OCO2)N1CCOCC1 (configuration not stated)	-11.5% (inactive)
CN(C)c1ccc(Nc2c(C(=O)O)cc([N+](=O)[O-])cc2[N+](=O)[O-])cc1	10.4% (inactive)
COc1c(F)c(F)c(C(=O)O)c(Nc2ccccc2C)c1F	9.6% (inactive)
COc1ccc(Nc2nc3c(S(=O)(=O)c4ccccc4)nnn3c3ccccc23)cc1	-5.6% (inactive)
